pKi values for the compounds below.
molecular target: hCA XII (Homo sapiens); construct: recombinant, tumor-associated transmembrane isoform; experiment: stopped-flow CO2 hydration assay
Sequence (O43570 30-289 limits assumed): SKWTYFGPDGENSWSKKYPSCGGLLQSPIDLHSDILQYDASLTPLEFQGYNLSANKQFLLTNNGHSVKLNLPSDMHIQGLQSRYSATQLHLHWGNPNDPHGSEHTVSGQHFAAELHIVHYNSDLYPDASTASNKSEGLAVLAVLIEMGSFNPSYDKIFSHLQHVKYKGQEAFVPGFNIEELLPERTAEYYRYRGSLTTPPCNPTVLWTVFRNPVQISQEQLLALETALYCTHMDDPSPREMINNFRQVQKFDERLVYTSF
Please note pKi is a logarithmic value: minus log10 of concentration in mol/L. Answer with that number alone.

Sample answers from the record:
IN: Give pKi for `COc1ccc(/C=C2/SC(=S)N(CC(=O)Nc3ccc(S(N)(=O)=O)cc3)C2=O)c(OC)c1`
OUT: 8.01

IN: Give pKi for `CC(C)c1ccc(/C=C2/SC(=S)N(CC(=O)Nc3ccc(S(N)(=O)=O)cc3)C2=O)cc1`
OUT: 7.38

IN: Give pKi for `COc1cc(OC)c(/C=C2/SC(=S)N(CC(=O)Nc3ccc(S(N)(=O)=O)cc3)C2=O)c(OC)c1`
OUT: 7.58

Consider the record given below.
IN: Give pKi for `COc1ccc(/C=C2/SC(=S)N(CC(=O)Nc3ccc(S(N)(=O)=O)cc3)C2=O)cc1OC`
OUT: 7.41
